- Assay system: T1, UPF3B-WT (human, UniProt Q9BZI7-2 1-470)
- T1 sequence: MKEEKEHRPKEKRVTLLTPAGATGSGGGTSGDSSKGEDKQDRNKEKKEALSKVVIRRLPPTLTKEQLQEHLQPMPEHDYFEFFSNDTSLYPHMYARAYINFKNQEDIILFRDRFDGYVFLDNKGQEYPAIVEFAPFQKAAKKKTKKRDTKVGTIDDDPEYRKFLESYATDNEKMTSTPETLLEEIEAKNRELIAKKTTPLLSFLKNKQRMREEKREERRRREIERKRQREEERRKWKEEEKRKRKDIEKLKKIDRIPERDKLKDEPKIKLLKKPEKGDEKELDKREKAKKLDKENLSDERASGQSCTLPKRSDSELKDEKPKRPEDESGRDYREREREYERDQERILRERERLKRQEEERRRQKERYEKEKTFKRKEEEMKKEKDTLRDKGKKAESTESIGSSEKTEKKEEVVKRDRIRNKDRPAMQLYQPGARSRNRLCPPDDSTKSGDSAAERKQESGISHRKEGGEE
- Method: fluorescence anisotropy; FA: 5 nM probe, 150 mM NaCl, 25 mM HEPES pH 7.45, 1 mM TCEP, 20 C; EMSA: 250 nM probe, 25 mM HEPES pH 7.45, 2 mM MgCl2, 150 mM NaCl, 0.5 mM TCEP, on ice
- Test conditions: protein: recombinant; tags: 6xHis removed by TEV; label: 5' HEX; single strand
Value kind: Kd (nM)
The response must be a number in nM with no trailing unit.

// CCCTGAGCTGACGCAGCACCTGGG (ssDNA) [24mer ssDNA] : Kd value = 190
